# tested_on: CDK2 (Homo sapiens, UniProt P24941)
# Construct: endogenous in cells; host or cells: MDA-MB-231
# experiment_summary: CDK protein degradation activity (Western blotting), CDK2
# Format: cell-based
# condition_description: MDA-MB-231 cells, 10 μM, 16 hours, Western blot
quantity_name: Enzyme degradation CDK2 (% remaining) @ 10 μM (%)

Using the record for O=C1CC[C@H](N2C(=O)c3cc(F)c(N4CCC(C(=O)N5CCC(CCN6CCN(c7ccc(Nc8ncnc9c8ncn9[C@H]8C[C@@H](NC(=O)Cc9ccccc9)C8)cc7)CC6)CC5)CC4)cc3C2=O)C(=O)N1 , report its Enzyme degradation CDK2 (% remaining) @ 10 μM.
60

Entry O=C1CC[C@H](N2C(=O)c3ccc(N4CC(C(=O)N5CCC(CN6CCN(c7ccc(Nc8ncnc9c8ncn9C8CC(NC(=O)Cc9ccccc9)C8)cc7)CC6)CC5)C4)cc3C2=O)C(=O)N1 (some centres unmarked) please
60
